Data provenance: PubChem BioAssay (NCI)

// reported TGI per item
- Test system: HCT-116 colon
- Experiment Summary: NCI tumour cell line growth inhibition, 48 h
Assay Endpoint: TGI

| Molecule | Assay Endpoint | Data Value |
| --- | --- | --- |
| N#Cc1c(N)c2c(c(-c3ccccc3)c1-c1ccccc1)C(=O)N(NC(=O)c1ccccc1)C2=O | TGI | > 100 µM |
| COc1ccc(C2CC(=O)CC(c3ccc(OC)cc3)C23C(=O)NC(=S)NC3=O)cc1 (stereo not drawn) | TGI | > 100 µM |
| Cc1cc2c(cc1C)C(=O)C1(C2)Cc2c(ccc(C)c2C)C1=O (stereo not drawn) | TGI | > 100 µM |

----------
- Tested on: HS 578T breast
- Experiment Summary: NCI tumour cell line growth inhibition, 48 h

| Compound | TGI |
| --- | --- |
| CNNC(=N\S(=O)(=O)c1cc(C(=O)Nc2ccc(Cl)cc2)c(Cl)cc1SCc1ccccc1)/N=C/c1ccc([N+](=O)[O-])s1 | > 100 µM |
| CCOC(=O)CCC(C(=O)OCC)n1nnc2ccc(Nc3c(C)[n+]([O-])c4cc(Cl)ccc4[n+]3[O-])cc21 (stereo unspecified) | > 100 µM |
| Nc1ccc(Nc2c3ccccc3nc3ccccc23)cc1 | > 10 µM |
| O=c1cc(O)c2ccccc2o1 | > 100 µM |
| O=C(NC(=S)NNC(=S)NNc1ccccc1)c1ccccc1 | > 100 µM |
| COc1cc2c(cc1OC)C1CCc3ccccc3CN1CC2 (stereo unspecified) | > 100 µM |
| CCO/C=N/C1=C(C#N)C(c2ccc(Cl)cc2)c2c(-c3ccccc3)nn(-c3ccccc3)c2O1 (stereo unspecified) | > 28.1 µM |
| CC(=O)c1nc2ccccc2n1CC(=O)c1ccc(Cl)cc1 | > 100 µM |
| O=C(Cc1ccccc1)NNc1nc(NNC(=O)c2ccncc2)nc(Nc2ccccc2)n1 | > 10 µM |
| COc1ccc2[nH]c(=O)c(/C=C/C(=O)/C=C/c3ccc(O)c(OC)c3)cc2c1 | > 100 µM |
| OCCNc1ncnc2c1ncn2C1OC(CO)C(O)C1O (stereo unspecified) | > 100 µM |

----------
- Test system: CCRF-CEM leukemia
- Experiment Summary: NCI tumour cell line growth inhibition, 48 h
Assay Endpoint: TGI

| Compound | Data Value |
| --- | --- |
| Nc1ncnc2c(C3OC(CO)C(O)C3O)[nH]nc12 (stereo unspecified) | 73.9 µM |
| S=C=NCc1ccccc1 | 2.48 µM |
| CCOC(=O)NC | > 100 µM |
| CCN(CC)CCOC(=O)CCN1CC2CCC(CC2)C1 | > 100 µM |
| CC(=O)C1C(=O)C(=O)N(c2ccccc2N2C(=O)C(=O)C(C(C)=O)C2=O)C1=O (stereo unspecified) | > 100 µM |
| CC(=O)OCC1OC(n2c(=O)n(-c3ccccc3)c(=O)c3cc(Br)cc(Br)c32)C(OC(C)=O)C(OC(C)=O)C1OC(C)=O (stereo unspecified) | > 100 µM |
| NC(=S)NNC(=O)CCC(=O)Nc1ccc(Cl)cc1Cl | > 100 µM |
| CN(C)/C=C(\C(=O)c1ccccc1)n1nc(-c2ccccc2)cc1-c1ccccc1 | > 10 µM |
| O=C(OCC1OC(OC(=O)c2cc(O)c(O)c(OC(=O)c3cc(O)c(O)c(O)c3)c2)C(OC(=O)c2cc(O)c(O)c(OC(=O)c3cc(O)c(O)c(O)c3)c2)C(OC(=O)c2cc(O)c(O)c(OC(=O)c3cc(O)c(O)c(O)c3)c2)C1OC(=O)c1cc(O)c(O)c(OC(=O)c2cc(O)c(O)c(O)c2)c1)c1cc(O)c(O)c(OC(=O)c2cc(O)c(O)c(O)c2)c1 (stereo unspecified) | > 50 µM |
| CC(=O)Nc1ccccc1-c1cnc2ccccc2n1 | > 100 µM |
| COc1cc2nc(N3CCCC3)nc(Nc3ccccc3)c2cc1OC | 3.09 µM |
